test system: Ruminococcus gnavus DSM 108212; assay: fold change of Tryptamine concentration vs plate DMSO controls (fold change (ratio)); higher = more amine produced, active = hit call of the paper (significant change in both replicates, either direction); details: incubation time: 27 h, anaerobic, 37 °C
Structures can show the parent of a compound that is named as a salt.
# maps each entry to its fold change of Tryptamine concentration
The reply should be a number, written without any unit.

Check out these entries, answers already filled in.
[[record]]
compound = "Clc1ccc(COC(Cn2ccnc2)c2ccc(Cl)cc2Cl)cc1 (centres undefined) [Econazole nitrate] (20 µM)"
reported_endpoint = "fold change of Tryptamine concentration"
measured_result = 0.357

[[record]]
compound = "CC[C@H]1OC(=O)[C@H](C)[C@@H](O[C@H]2C[C@@](C)(OC)[C@@H](O)[C@H](C)O2)[C@H](C)[C@@H](O[C@@H]2O[C@H](C)C[C@H](N(C)C)[C@H]2O)[C@](C)(O)C[C@@H](C)CN(C)[C@H](C)[C@@H](O)[C@]1(C)O [Azithromycin] (20 µM)"
reported_endpoint = "fold change of Tryptamine concentration"
measured_result = 0.0983

[[record]]
compound = "CN1CCc2cccc3c2[C@H]1Cc1ccc(O)c(O)c1-3 [R(-) Apomorphine hydrochloride hemihydrate] (20 µM)"
reported_endpoint = "fold change of Tryptamine concentration"
measured_result = 0.997

[[record]]
compound = "CCCC(=O)N1CCCN(c2nc(N)c3cc(OC)c(OC)cc3n2)CC1 [Bunazosin hydrochloride] (20 µM)"
reported_endpoint = "fold change of Tryptamine concentration"
measured_result = 1

[[record]]
compound = "CN(C)CCn1nnnc1SCC1=C(C(=O)O)N2C(=O)[C@@H](NC(=O)Cc3csc(N)n3)[C@H]2SC1 [Cefotiam hydrochloride] (20 µM)"
reported_endpoint = "fold change of Tryptamine concentration"
measured_result = 0.0411


Field fold change of Tryptamine concentration (entry Cc1c(-c2ccccc2)oc2c(C(=O)OCCN3CCCCC3)cccc2c1=O [Flavoxate hydrochloride] (20 µM) ) reads 1.03

Just so you know, measured fold change of Tryptamine concentration for CN(C)CCCC1(c2ccc(F)cc2)OCc2cc(C#N)ccc21 (centres undefined) [Citalopram hydrobromide] (20 µM) came out at 0.845

Summary for this compound, CC(=O)Oc1cc2c(s1)CCN(C(C(=O)C1CC1)c1ccccc1F)C2 (centres undefined) [Prasugrel] (20 µM) : fold change of Tryptamine concentration is 0.985

Query COc1cc(C(=O)NCc2ccc(OCCN(C)C)cc2)cc(OC)c1OC [Trimethobenzamide hydrochloride] (20 µM) yields fold change of Tryptamine concentration of 1.04

Given item Cc1ncc(CO)c(CO)c1O [Pyridoxine hydrochloride] (20 µM) , the value recorded as its fold change of Tryptamine concentration is 1.02
